# Test system: E. coli
# assay-summary: MIC values, E. coli (Tables 1-4)
# Type: cell-based
Consider the following molecules; for each one, report its MIC E. coli.
One number for each entry, in µg/mL.

Record excerpt, results attached:
1. CO[C@H]1/C=C/O[C@@]2(C)Oc3c(C)c(O)c4c(=O)c(c5oc6c7c(cc(O)c6nc-5c4c3C2=O)N(C)CCN7C)NC(=O)/C(C)=C\C=C\[C@H](C)[C@H](O)[C@@H](C)[C@@H](O)[C@@H](C)[C@H](OC(C)=O)[C@@H]1C [Compound 80]	8
2. COC1C=COC2(C)Oc3c(C)c(O)c4c(=O)c(c5oc6cc(N7CC(C)OC(C)C7)cc(O)c6nc-5c4c3C2=O)NC(=O)C(C)=CC=CC(C)C(O)C(C)C(O)C(C)C(O)C1C (mixture of isomers) [Compound 117]	8
3. CO[C@H]1/C=C/O[C@@]2(C)Oc3c(C)c(O)c4c(=O)c(c5oc6cc(N7CCC(CCO)CC7)cc(O)c6nc-5c4c3C2=O)NC(=O)/C(C)=C\C=C\[C@H](C)[C@H](O)[C@@H](C)[C@@H](O)[C@@H](C)[C@H](O)[C@@H]1C [Compound 66]	4
4. CO[C@H]1/C=C/O[C@@]2(C)Oc3c(C)c(O)c4c(=O)c(c5oc6cc(N7CCC(CNC(C)=O)CC7)cc(O)c6nc-5c4c3C2=O)NC(=O)/C(C)=C\C=C\[C@H](C)[C@H](O)[C@@H](C)[C@@H](O)[C@@H](C)[C@H](OC(C)=O)[C@@H]1C [Compound 55]	8

### Prompt May I ask what MIC E. coli has been recorded for CO[C@H]1/C=C/O[C@@]2(C)Oc3c(C)c(O)c4c(=O)c(c5oc6cccc(O)c6nc-5c4c3C2=O)NC(=O)/C(C)=C\C=C\[C@H](C)[C@H](O)[C@@H](C)[C@@H](O)[C@@H](C)[C@H](O)[C@@H]1C [Compound 136] ?
### Response 8
